target: C5AR1; assay: pooled miR-30 sensor sort-seq; sequence = guide strand; details: shRNA; note: reference of the scale not given here
Label 1.0 when sensor-assay potency score (higher = more potent) is at or above -0.2; otherwise label 0.0.

{"columns": ["record sequence", "system", "group"],
 "data": [
  ["TGAAAGTGTAACAAATCGTGAG", "C5AR1", 1.0],
  ["AAGTGTAACAAATCGTGAGCGT", "C5AR1", 1.0],
  ["TACTTGTCTGTATTCTGAGTTC", "C5AR1", 0.0],
  ["TAACTCACTTACAAGAGCTTAG", "C5AR1", 1.0],
  ["TAAACACCAGCAGAAAGCGGTC", "C5AR1", 0.0],
  ["TCTACTTGTCTGTATTCTGAGT", "C5AR1", 0.0],
  ["TAAGGTAACACCATCCCACGAA", "C5AR1", 1.0],
  ["TCTTCAGTCAACACGTTCCGGA", "C5AR1", 0.0],
  ["ATAGTGTCCACTGTGGAGCGCG", "C5AR1", 0.0],
  ["TACATATTTTCCAACTTGCCAT", "C5AR1", 0.0],
  ["TTGAGTGTCTTGGTGGACCGCG", "C5AR1", 1.0],
  ["TTATTCAGCAGCAGGAAGGTGG", "C5AR1", 0.0],
  ["TTAGAAGTTTTATCCACAGGGG", "C5AR1", 0.0],
  ["TTAACTCACTTACAAGAGCTTA", "C5AR1", 0.0],
  ["TTCTACTTGTCTGTATTCTGAG", "C5AR1", 1.0],
  ["TAGAAGTTTTATCCACAGGGGT", "C5AR1", 1.0],
  ["TTAAACACCAGCAGAAAGCGGT", "C5AR1", 1.0],
  ["TACTCCTCCCGGACCACCCGGT", "C5AR1", 1.0],
  ["TGATGCTGTACAATGGACGTGA", "C5AR1", 1.0]
]}
